Origin of measurements: patent US20260258083A1

Target or system: T1, Steap 1xCD3 TCE SEQ ID NO 373 + 374 + 375
T1 construct: also called STEAP1×CD3e heterodimeric TCE; Ab-A1 Xmab2+1
Test summary: SPR, peptide immobilised on CM5 (PDEA), TCE as analyte, kinetic 1:1 fit
Where no end group is shown, it is not given here. [ ]: non-standard residue; d: D form. pGlu = O=C1CC[C@@H](C(=O)O)N1
Reported property: Kd

>>> df
                                     binder  reported_property  measured_value
0  [pGlu]DGTEELKGC (Position 1 is written E for pGlu) [pGlu-DGTEELKGC]                 Kd         35.2 nM
1          [pGlu]DGEEELKGC [pGlu-DGEEELKGC]                 Kd         27.4 nM
2  [pGlu]DGNEELKGC (also called ID 14974) [pGlu-DGNEELKGC]                 Kd         2.57 nM
